B1: SAM and SH3 domain-containing protein 1, residues 630 to 700; numbered along this chain, O94885 (parent)
chain: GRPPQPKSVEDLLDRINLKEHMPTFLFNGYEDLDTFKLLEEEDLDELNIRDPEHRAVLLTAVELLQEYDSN

Variants of: B1
Test Details: abundance fitness (aPCA) (normalised: wild type 0, dead -1); higher = more abundant; growth selection in yeast, the domain comes from the species named
Conditions Used: Homo sapiens
Lab note: compare abundance fitness against -0.3. Equal or greater, write YES. Smaller, write NO.

Solved cases (3 shown):
N71A    YES
E63T    YES
E63I    NO

Hi team, for D34T , is the recorded abundance fitness at or above -0.3?
NO

Another variant to look at: L18W
NO

Another variant to look at: Y30P
NO

Another variant to look at: R2D
YES

Another variant to look at: F36I
NO

Another variant to look at: E42N
YES

Another variant to look at: E10P
NO

Another variant to look at: L59F
NO

Another variant to look at: Q66V
NO

Another variant to look at: L59I
NO

Another variant to look at: L44P
NO

Another variant to look at: R15N
YES

Another variant to look at: P6I
YES

Another variant to look at: L59C
NO

Another variant to look at: T35M
NO

Another variant to look at: D14C
YES

Another variant to look at: L39Q
NO

Another variant to look at: D69N
YES

Another variant to look at: I16E
NO
